The measurements presented in this section are drawn from ChEMBL document CHEMBL1201862.

Field: GI50. Provide a value for each of the compounds that follow.
- Tested on: SF-268
- assay protocol: NCI tumour cell line growth inhibition, 48 h
The source made the active and inactive calls. Cut-off read from the data, not from the text of the source: active = GI50 up to about 1.1 µM and inactive = higher.

As a guide, the following entries are already answered.
>>> reported("CC(C)C(C/C=C1/CC(CO)(COC(=O)C2CCCCC2)OC1=O)C(C)C (stereo not drawn)")
"17.6 µM (inactive)"
>>> reported("COc1cc2c3c(c1OC)C(=O)C=C3N(S(=O)(=O)c1ccc(C)cc1)CC2")
"> 100 µM (inactive)"
>>> reported("COc1ccc(-c2cc(-c3cc(C)cc(Br)c3O)no2)cc1")
"4.17 µM (inactive)"
>>> reported("O=C1CCC(c2ccccc2)(c2ccccc2)CC1")
"> 100 µM (inactive)"
>>> reported("Cc1cc(S(=O)(=O)NC(=C(C#N)C#N)[n+]2ccc(N(C)C)cc2)c([S-])cc1Cl")
"> 100 µM (inactive)"

Can you give me GI50 for all of these, one by one?
1. CC1CC(N2CCOCC2)=Nc2ccccc2N1C (stereo not drawn)
2. NC(=S)Nc1nc(=S)[nH]c2[nH]ccc12
3. O=C1/C(=C/c2ccc3c(c2)OCO3)CCC1CN1CCOCC1 (stereo not drawn)
4. CN1C2CCC1C(CO)C(=O)C2 (stereo not drawn)

Found:
["> 100 µM (inactive)", "20.2 µM (inactive)", "10.5 µM (inactive)", "> 100 µM (inactive)"]

Can you give me GI50 for all of these, one by one?
1. Cc1cn(CCCCOC(=O)NC(CCCNC(N)=O)C(=O)O)c(=O)[nH]c1=O (stereo not drawn)
2. CC(=O)NC1C(OCc2ccccc2)OC(CO)C(O)C1OCC(=O)NC(C)C(=O)NC(CCC(=O)NCCCCCC(=O)Nc1ccc2c(c1)CN1C(=O)c3ccccc3C1=N2)C(N)=O (stereo not drawn)

Found:
> 100 µM (inactive)
63.8 µM (inactive)

Can you give me GI50 for all of these, one by one?
1. CCOC(=O)[C@H]1Nc2ccc(Cl)cc2[C@H]2CCC[C@@H]12
2. C=C1C[C@@H]2O[C@H]3[C@H]4[C@@H](C[C@@H](C)[C@@H](OC(C)=O)[C@H]42)[C@@H](C)CO[C@@]3(C)[C@H](OC(=O)CCCCCCC)CC1=O
3. COc1ccc(C2(c3ccc(OC)cc3)OC(=O)c3cccc4cccc2c34)cc1
4. CN1C(=O)c2cccc3c([N+](=O)[O-])ccc(c23)C1=O
5. COc1nc2nccc-2c2occn12
6. COc1cc2c(cc1OC)C1C=NC(C2)c2cc(OC)c(OC)cc21 (stereo not drawn)
7. CSc1ncnc2c1ncn2C1OC(CO)C(O)OC1O (stereo not drawn)
8. CCCN1CN(C(C(=O)N[C@@H]2C(=O)N3C2SC(C)(C)C3C(=O)O)c2ccccc2)CSC1=S (stereo partly drawn)

Found:
["> 100 µM (inactive)", "18.8 µM (inactive)", "> 100 µM (inactive)", "9.68 µM (inactive)", "> 100 µM (inactive)", "> 100 µM (inactive)", "7.69 µM (inactive)", "> 100 µM (inactive)"]
